subject_of_test: human progesterone receptor-A [PRA] isoform (Homo sapiens)
Construct: host or cells: insect SF21 cells (baculovirus)
test_protocol: Radioligand binding with human progesterone receptor cytosol ([3H]-progesterone competition)
experimental_parameters: PRA cytosol expressed in insect SF21 cells, [3H]Prog ~0.8 nM, 4° C. overnight; Ki by Cheng-Prusoff, KL ~4.5 nM; read-out: Ki (nM) PR
reported_property: Ki (nM)

Reference set, count: 5
Quick one: Ki for COc1cccc2c1-c1ccc3c(c1C(c1cc(C)cc(Br)c1)O2)C(C)=CC(C)(C)N3 (stereo not shown) [Example 11] ?
288

Quick one: Ki for COc1c(O)ccc2c1-c1ccc3c(c1/C(=C/c1cccc(F)c1)O2)C(C)=CC(C)(C)N3 [Example 374] ?
222

Quick one: Ki for COc1c(O)ccc2c1-c1ccc3c(c1[C@@H]([C@H]1C=CCC1)O2)C(C)=CC(C)(C)N3 [Example 287] ?
3500

Quick one: Ki for C/C=C/CC1Oc2cccc(OC)c2-c2ccc3c(c21)C(C)=CC(C)(C)N3 (stereo not shown) [Example 198] ?
2130

Quick one: Ki for C=CCC1Oc2cccc(O)c2-c2ccc3c(c21)C(C)=CC(C)(C)N3 (stereo not shown) [Example 82] ?
327

(A) COc1cccc2c1-c1ccc3c(c1C(CCN(C)C)O2)C(C)=CC(C)(C)N3 (stereo not shown) [Example 64]
(B) CC1=CC(C)(C)Nc2ccc3c(c21)C(c1cc(C)cc(C)c1)Oc1ccc(O)c(Cl)c1-3 (stereo not shown) [Example 219]
Returns the identifier with the smallest measured Ki among A and B . Provide the label of your selected option as the answer.
B
(B: 178 nM, A: 1670 nM)

----------
subject_of_test: human progesterone receptor-A [PRA] isoform (Homo sapiens, UniProt P06401)
Construct: host or cells: insect SF21 cells (baculovirus)
test_protocol: Radioligand binding with human progesterone receptor cytosol ([3H]-progesterone competition)
experimental_parameters: PRA cytosol expressed in insect SF21 cells, [3H]Prog ~0.8 nM, 4° C. overnight; Ki by Cheng-Prusoff, KL ~4.5 nM; read-out: Ki (nM) PR
reported_property: Ki (nM)

Reference set, count: 5
Quick one: Ki for COc1c(O)ccc2c1-c1ccc3c(c1[C@H]([C@H]1C=C(C)CCC1)O2)C(C)=CC(C)(C)N3 (racemic) ?
21.2

Quick one: Ki for COc1c(O)ccc2c1-c1ccc3c(c1C(c1ccc(F)cc1)O2)C(C)=CC(C)(C)N3 (stereo not shown) ?
1430

Quick one: Ki for COc1cccc2c1-c1ccc3c(c1C(c1cc(Cl)cc(Cl)c1)O2)C(C)=CC(C)(C)N3 (stereo not shown) [Example 19] ?
4970

Quick one: Ki for COc1c(O)ccc2c1-c1ccc3c(c1C(c1cccc(OC(C)=O)c1)O2)C(C)=CC(C)(C)N3 (stereo not shown) ?
1210

Quick one: Ki for COc1c(O)ccc2c1-c1ccc3c(c1C(c1cc(Cl)cc(Cl)c1)O2)C(C)=CC(C)(C)N3 (stereo not shown) ?
394

(P) C/C=C\C1Oc2cccc(OC)c2-c2ccc3c(c21)C(C)=CC(C)(C)N3 (stereo not shown)
(Q) COc1ccc(Br)c2c1-c1ccc3c(c1C(C1C=C(C)CCC1)O2)C(C)=CC(C)(C)N3 (stereo not shown)
Returns the identifier with the smallest measured Ki among P and Q . Provide the label of your selected option as the answer.
P

(I) CC1=CC(C)(C)Nc2ccc3c(c21)C(c1ccc(F)c(F)c1)Oc1ccc(O)c(Cl)c1-3 (stereo not shown)
(II) CCc1cccc2c1-c1ccc3c(c1C(c1cc(Cl)cc(Cl)c1)O2)C(C)=CC(C)(C)N3 (stereo not shown)
(III) CC(=O)Oc1cccc2c1-c1ccc3c(c1C(c1ccccc1)O2)C(C)=CC(C)(C)N3 (stereo not shown)
List by increasing Ki. Please write the labels in the order that was asked for.
I, II, III

(A) C=CCC1Oc2cccc(CO)c2-c2ccc3c(c21)C(C)=CC(C)(C)N3 (stereo not shown) [Example 77]
(B) COc1cccc2c1-c1ccc3c(c1C(CC=C(C)C)O2)C(C)=CC(C)(C)N3 (stereo not shown)
(C) C=Cc1cccc2c1-c1ccc3c(c1C(C1C=CCCC1)O2)C(C)=CC(C)(C)N3 (stereo not shown)
(D) C=C(Br)CC1Oc2cccc(OC)c2-c2ccc3c(c21)C(C)=CC(C)(C)N3 (stereo not shown)
(E) COc1cccc2c1-c1ccc3c(c1C(/C=C/c1ccccc1)O2)C(C)=CC(C)(C)N3 (stereo not shown)
Reorder: Ki, max to min. Please write the labels in the order that was asked for.
D, E, B, C, A
(D: 9300 nM, E: 2880 nM, B: 1590 nM, C: 254 nM, A: 173 nM)

(I) COc1cccc2c1-c1ccc3c(c1C(=Cc1cccc(C(F)(F)F)c1)O2)C(C)=CC(C)(C)N3
(II) COc1cccc2c1-c1ccc3c(c1C(c1cccc(C)c1)O2)C(C)=CC(C)(C)N3 (stereo not shown)
(III) CC1=CC(C)(C)Nc2ccc3c(c21)C(Cc1ccccc1)Oc1ccc(O)c(Cl)c1-3 (racemic)
(IV) C=CCC1Oc2ccc(OC(=O)CCCC(=O)N3CCOCC3)c(OC)c2-c2ccc3c(c21)C(C)=CC(C)(C)N3 (stereo not shown)
(V) COC(=O)/C=C/C1Oc2cccc(OC)c2-c2ccc3c(c21)C(C)=CC(C)(C)N3 (stereo not shown)
List by increasing Ki. Please write the labels in the order that was asked for.
III, IV, I, V, II

----------
subject_of_test: human progesterone receptor-A [PRA] isoform (Homo sapiens, UniProt P06401)
Construct: host or cells: insect SF21 cells (baculovirus)
test_protocol: Radioligand binding with human progesterone receptor cytosol ([3H]-progesterone competition)
experimental_parameters: Ki (nM) PR
// reported Ki for each item listed

Reference set, count: 4
Quick one: Ki for COC(=O)CN(C)C(=O)Oc1cccc(C2Oc3cccc(OC)c3-c3ccc4c(c32)C(C)=CC(C)(C)N4)c1 (centres unmarked) ?
≥ 10000 nM

Quick one: Ki for COc1c(OC(=O)N(C)C)ccc2c1-c1ccc3c(c1C(c1ccccc1OC(=O)N(C)C)O2)C(C)=CC(C)(C)N3 (centres unmarked) ?
≥ 10000 nM

Quick one: Ki for COc1cccc2c1-c1ccc3c(c1C(c1ccc(OC(=O)N(C)C)cc1)O2)C(C)=CC(C)(C)N3 (centres unmarked) ?
≥ 10000 nM

Quick one: Ki for COc1cccc2c1-c1ccc3c(c1C(c1cccc(OC(=O)N(C)C)c1)O2)C(C)=CC(C)(C)N3 (centres unmarked) ?
≥ 10000 nM

Okay, now this compound:
Quick one: Ki for COc1c(O)ccc2c1-c1ccc3c(c1C(c1ccccc1OC(=O)N(C)C)O2)C(C)=CC(C)(C)N3 (centres unmarked) ?
10100 nM

----------
subject_of_test: human progesterone receptor-A [PRA] isoform (Homo sapiens)
Construct: host or cells: insect SF21 cells (baculovirus)
test_protocol: Radioligand binding with human progesterone receptor cytosol ([3H]-progesterone competition)
experimental_parameters: PRA cytosol expressed in insect SF21 cells, [3H]Prog ~0.8 nM, 4° C. overnight; Ki by Cheng-Prusoff, KL ~4.5 nM; read-out: Ki (nM) PR
reported_property: Ki (nM)

(P) COc1c(OC(=O)CCC(=O)N(C)C)ccc2c1-c1ccc3c(c1C(C(C)C)O2)C(C)=CC(C)(C)N3 (stereo not shown)
(Q) C/C=C/CC1Oc2cccc(OC)c2-c2ccc3c(c21)C(C)=CC(C)(C)N3 (stereo not shown) [Example 191]
(R) COCC1=C[C@H]([C@@H]2Oc3ccc(O)c(OC)c3-c3ccc4c(c32)C(C)=CC(C)(C)N4)CCC1 (relative stereo)
Lab note: order the above by reported Ki, lowest first, highest last. Please write the labels in the order that was asked for.
R, Q, P

----------
subject_of_test: human progesterone receptor-A [PRA] isoform (Homo sapiens, UniProt P06401)
Construct: host or cells: insect SF21 cells (baculovirus)
Sequence (P06401 1-769 isoform P06401-2): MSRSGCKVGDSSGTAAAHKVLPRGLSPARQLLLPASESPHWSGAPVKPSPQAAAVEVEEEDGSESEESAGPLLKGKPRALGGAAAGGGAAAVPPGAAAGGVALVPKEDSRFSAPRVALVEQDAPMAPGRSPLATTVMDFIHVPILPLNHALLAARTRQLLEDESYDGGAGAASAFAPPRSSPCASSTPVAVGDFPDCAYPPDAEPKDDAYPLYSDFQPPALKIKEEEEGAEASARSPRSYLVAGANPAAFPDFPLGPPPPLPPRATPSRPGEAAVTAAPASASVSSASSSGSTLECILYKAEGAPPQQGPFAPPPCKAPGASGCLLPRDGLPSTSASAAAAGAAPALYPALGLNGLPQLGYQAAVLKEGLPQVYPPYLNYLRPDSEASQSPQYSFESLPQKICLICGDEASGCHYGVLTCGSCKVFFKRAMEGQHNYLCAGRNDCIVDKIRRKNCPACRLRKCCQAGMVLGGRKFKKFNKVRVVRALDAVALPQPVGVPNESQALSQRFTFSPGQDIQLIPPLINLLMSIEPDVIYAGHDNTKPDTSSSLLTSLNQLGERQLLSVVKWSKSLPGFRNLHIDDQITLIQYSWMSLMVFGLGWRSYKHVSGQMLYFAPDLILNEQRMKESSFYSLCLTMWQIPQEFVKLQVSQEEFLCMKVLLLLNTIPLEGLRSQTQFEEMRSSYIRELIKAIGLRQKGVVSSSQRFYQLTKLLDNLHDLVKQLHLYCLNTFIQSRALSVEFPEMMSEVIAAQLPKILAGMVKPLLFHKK
test_protocol: Radioligand binding with human progesterone receptor cytosol ([3H]-progesterone competition)
experimental_parameters: PRA cytosol expressed in insect SF21 cells, [3H]Prog ~0.8 nM, 4° C. overnight; Ki by Cheng-Prusoff, KL ~4.5 nM; read-out: Ki (nM) PR
reported_property: Ki (nM)

Quick one: Ki for COc1cccc2c1-c1ccc3c(c1C(C1CC1)O2)C(C)=CC(C)(C)N3 (centres unmarked) [Example 319] ?
492

Quick one: Ki for C=CCC1Oc2ccc(OC(=O)CCC(C)=O)c(OC)c2-c2ccc3c(c21)C(C)=CC(C)(C)N3 (racemic) [Example 434] ?
123

Quick one: Ki for CC1=CC(C)(C)Nc2ccc3c(c21)C(c1ccccc1)Oc1cccc(CO)c1-3 (centres unmarked) [Example 336] ?
1560

Quick one: Ki for COc1cccc2c1-c1ccc3c(c1C(c1ccccc1)O2)C(C)=NC(C)(C)N3 (centres unmarked) [Example 358] ?
8960

(A) COc1c(O)ccc2c1-c1ccc3c(c1C(C1C=CCCC1)O2)C(C)=CC(C)(C)N3 (racemic) [Example 236]
(B) CC1=CC(C)(C)Nc2ccc3c(c21)C(C1CCCC1)Oc1ccc(O)c(Cl)c1-3 (single isomer, unassigned; (-)) [Example 422]
Could you kindly indicate whether A or B has the higher Ki value? Provide the label of your selected option as the answer.
A
(A: 36.2 nM, B: 2.9 nM)

All figures here come from patent US6506766B1.
